Attribution: paper PMC3701073

- SYSTEM NAME: peptidyl-tRNA hydrolase from Acinetobacter baumannii (AbPth) (Acinetobacter baumannii, UniProt D0C9L6)
- Sequence (D0C9L6 1-193): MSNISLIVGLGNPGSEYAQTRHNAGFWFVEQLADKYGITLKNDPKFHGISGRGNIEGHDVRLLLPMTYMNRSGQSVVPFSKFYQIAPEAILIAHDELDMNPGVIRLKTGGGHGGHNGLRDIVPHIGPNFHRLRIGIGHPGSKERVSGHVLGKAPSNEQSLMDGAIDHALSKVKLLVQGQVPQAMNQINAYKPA
MEASURED PROPERTY: Kd

So what's the measured Kd for this one? "O=c1ccn([C@@H]2O[C@H](CO)[C@@H](O)[C@H]2O)c(=O)[nH]1"
~2.11 nM

Report Kd for "Nc1ccn([C@@H]2O[C@H](CO)[C@@H](O)[C@H]2O)c(=O)n1" please.
4.79 nM
